Target or system: GdauOBP10 (Galeruca daurica, UniProt A0A1U9W4Z5)
Sequence (A0A1U9W4Z5 entry or part of it): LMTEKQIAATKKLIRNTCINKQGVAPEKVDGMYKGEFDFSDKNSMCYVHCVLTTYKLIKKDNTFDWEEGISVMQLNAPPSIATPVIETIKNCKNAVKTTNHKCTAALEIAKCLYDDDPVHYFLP
Test protocol: Fluorescence competitive binding assay (1-NPN reporter), recombinant GdauOBP10
Parameter measured: pKd
// returns pKd (minus log10 of molar concentration), number only

Endpoint output: pKd of c1ccc(Nc2cccc3ccccc23)cc1 [1-NPN, N-phenyl-1-naphthylamine, reference compound] . Value?
5.18

====

// values below are reported pKi
Target or system: GdauCSP4 (Galeruca daurica, UniProt A0A1W6GWH1)
Sequence (A0A1W6GWH1 entry or part of it): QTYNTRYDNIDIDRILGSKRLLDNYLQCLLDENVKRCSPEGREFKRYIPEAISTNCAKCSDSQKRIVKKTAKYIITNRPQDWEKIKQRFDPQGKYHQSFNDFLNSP
Test protocol: Fluorescence competitive binding assay (1-NPN reporter), recombinant GdauCSP4
Reported conditions: GdauCSP4; Ki = IC50/(1 + [1-NPN]/K1-NPN)
// returns pKi (minus log10 of molar concentration), number only

These recorded examples may help you get a feel for the data.
{"columns": ["Compound", "pKi"],
 "data": [
  ["C1=CC=CCC=C1", 4.67],
  ["CSSSC [Dimethyl trisulfide]", 4.82],
  ["CSSC [Dimethyl disulfide]", 4.68]
]}

Lab note: next compound to report on.
Endpoint output: pKi of C=CCSCC=C [Diallyl sulfide] . Value?
4.40

====

Target or system: GdauOBP10 (Galeruca daurica, UniProt A0A1U9W4Z5)
Test protocol: Fluorescence competitive binding assay (1-NPN reporter), recombinant GdauOBP10
Reported conditions: GdauOBP10; 2 μM protein, 1-NPN saturated, 50 mM Tris–HCl pH 7.4; read-out: IC50
// values below are reported IC50
Respond with the bare value in µM.

{"columns": ["Molecule", "Unit text", "IC50"],
 "data": [
  ["C1=CC=CCC=C1 [1,3,5-cycloheptatriene, 1,3,5-Cycloheptatriene]", "µM", 59.9],
  ["CSSC [Dimethyl disulfide]", "µM", 61.9],
  ["CSSSC [Dimethyl trisulfide]", "µM", 67.4]
]}

Endpoint output: IC50 of C=CCSCC=C [Diallyl sulfide] . Value?
77.8

====

Target or system: GdauOBP6 (Galeruca daurica)
Sequence (A0A1U9W4Z8 entry or part of it): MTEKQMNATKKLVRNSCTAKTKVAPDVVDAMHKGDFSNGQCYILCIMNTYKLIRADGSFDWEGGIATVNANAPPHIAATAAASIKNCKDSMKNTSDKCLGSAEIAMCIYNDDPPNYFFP
Test protocol: Fluorescence competitive binding assay (1-NPN reporter), recombinant GdauOBP6
Parameter measured: pKd
// returns pKd (minus log10 of molar concentration), number only

Endpoint output: pKd of c1ccc(Nc2cccc3ccccc23)cc1 [1-NPN, N-phenyl-1-naphthylamine, reference compound] . Value?
4.93
